- system_name: MET (wt) GST-tagged recombinant human MET kinase domain (Homo sapiens, UniProt P08581)
- Construct: GST-tagged recombinant human MET kinase domain
- Sequence (P08581 1078-1345 limits assumed): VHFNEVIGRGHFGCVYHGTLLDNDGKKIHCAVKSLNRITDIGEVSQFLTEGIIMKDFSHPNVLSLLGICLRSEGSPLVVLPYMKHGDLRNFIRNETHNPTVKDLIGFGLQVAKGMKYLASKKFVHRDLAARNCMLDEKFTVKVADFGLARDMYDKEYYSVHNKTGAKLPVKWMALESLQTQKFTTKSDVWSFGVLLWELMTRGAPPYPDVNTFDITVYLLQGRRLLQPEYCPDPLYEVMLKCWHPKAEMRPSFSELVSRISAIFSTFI
- procedure_details: c-Met Enzyme Assay, wild type (LanthaScreen Eu Kinase Binding)
- experimental_context: averaged IC50; MET (wt) 10 nM; 60-minute incubation at 22° C.; read-out: SigChem WT IC50
measured_attribute: IC50 (nM)

* COc1cc2nccc(Oc3ccc(NC(=O)c4cn(C)cc(-c5ccc(F)cc5)c4=O)nc3)c2cc1OC [Example 2] | 6.4
* COc1cc2nccc(Oc3ccc(NC(=O)c4cn(CCC(C)C)cc(-c5ccc(F)cc5)c4=O)nc3)c2cc1OC [Example 34] | 4

A. COc1cc2nccc(Oc3cnc(NC(=O)c4cn(C(C)C)cc(-c5ccc(F)cc5)c4=O)nc3)c2cc1OC [Example 54]
B. CCn1cc(C(=O)Nc2ccc(Oc3ccnc4cc(OC)c(OC)cc34)cn2)c(=O)c(-c2ccc(F)cc2)c1 [Example 3]
QUERY: Hi, I'm comparing two records. Which one has the lower IC50, A or B ? Write down the label attached to your selection.
RESULT: B

###

- system_name: human MET kinase Y1230S (Homo sapiens, UniProt P08581, Y1230S)
- Construct: GST-tagged recombinant human MET kinase domain
- Sequence (P08581 1078-1345 Y1230S): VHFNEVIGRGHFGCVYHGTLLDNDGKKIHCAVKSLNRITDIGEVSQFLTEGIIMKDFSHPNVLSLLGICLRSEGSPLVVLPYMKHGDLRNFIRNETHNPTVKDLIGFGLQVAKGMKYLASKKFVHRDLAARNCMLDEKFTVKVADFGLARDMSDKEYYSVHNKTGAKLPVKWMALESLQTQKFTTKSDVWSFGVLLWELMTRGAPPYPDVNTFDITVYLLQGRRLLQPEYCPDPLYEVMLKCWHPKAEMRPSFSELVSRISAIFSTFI
- procedure_details: c-Met Enzyme Assay, Y1230S mutant
- experimental_context: averaged IC50; Y1230S 8 nM; 60-minute incubation at 22° C.; read-out: Y1230 S IC50
pIC50: −log10 of the molar value.
measured_attribute: pIC50

* COc1ccc(-c2cn(C(C)C)cc(C(=O)Nc3ccc(Oc4ccnc5cc(OC)c(OC)cc45)cn3)c2=O)c(F)c1 | 7.14
* COc1cc2nccc(Oc3ccc(NC(=O)c4cn(C(C)C)cc(-c5ccc(F)cc5Cl)c4=O)nc3)c2cc1OC | 8.57
* COc1cc2nccc(Oc3ccc(NC(=O)c4cn(C(C)C)cc(-c5ccc(F)cc5)c4=O)nc3)c2cc1OC | 8.89

A. COc1ccc2nccc(Oc3ccc(NC(=O)c4cn(CCN(C)C)cc(-c5ccc(F)cc5)c4=O)nc3)c2c1
B. CCc1c(-c2ccc(F)cc2)c(=O)c(C(=O)Nc2ccc(Oc3ccnc4cc(OC)c(OC)cc34)cn2)cn1C(C)C
QUERY: Rank A against B by their pIC50 values and give the higher one. Reply briefly: the label of your chosen item.
RESULT: B
(B: 8.82, A: 7.72)

###

- system_name: MET (wt) GST-tagged recombinant human MET kinase domain (Homo sapiens)
- Construct: GST-tagged recombinant human MET kinase domain
- procedure_details: c-Met Enzyme Assay, wild type (LanthaScreen Eu Kinase Binding)
- experimental_context: averaged IC50; MET (wt) 10 nM; 60-minute incubation at 22° C.; read-out: SigChem WT IC50
pIC50: −log10 of the molar value.
measured_attribute: pIC50

Past entries and their recorded results:
* COc1cc2nccc(Oc3ccc(NC(=O)c4cn(CCC(C)C)cc(-c5ccc(Cl)cc5)c4=O)nc3)c2cc1OC [Example 37] | 8.00
* COc1cc2nccc(Oc3ccc(NC(=O)c4cn(C(C)C)cc(-c5ccc(Cl)cc5)c4=O)nc3)c2cc1OC [Example 5] | 8.19

1. COc1cc2nccc(Oc3ccc(NC(=O)c4cn(CCC(C)C)cc(-c5ccc(F)cc5F)c4=O)nc3)c2cc1OC [Example 36]
2. COc1cc2nccc(Oc3ccc(NC(=O)c4cn(C5CCOCC5)cc(-c5ccc(F)cc5)c4=O)nc3)c2cc1OC [Example 12]
3. COc1cc2nccc(Oc3ccc(NC(=O)c4cn(C(C)C)cc(-c5ccc(F)c(Cl)c5)c4=O)nc3)c2cc1OC [Example 21]
4. COc1ccc2nccc(Oc3ccc(NC(=O)c4cn(C)cc(-c5ccc(F)cc5)c4=O)nc3)c2c1 [Example 41]
QUERY: Put the items in sequence by pIC50, from largest down. Write the labels in rank order as requested.
RESULT: 1, 2, 3, 4
(1: 8.62, 2: 8.27, 3: 7.87, 4: 6.93)
